Assay: chemical genetic growth profiling, strain panel (AID 1159580);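 also: tested at 20 µM; growth read once vehicle control cultures reached saturation at 30 °C; 1 = growth at the plate median or of vehicle wells; lower values mean less growth of the strain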
Details: S. cerevisiae deletion strains, growth OD, locus YDR226W, strain ADK1, hits give low values
Out of some 5,500 compounds screened, about 2,000 (36%) were called active. Another 18% or so got no clear call; they are omitted. Some of the results follow.
Please go through the items and note down their normalized growth.
Form rule: numeric answer, no unit written next to it.

-- ask Any idea what its normalized growth is? The compound is CC(C)(C)c1cc(C(=O)NNc2cccc(Cl)c2)n(Cc2ccccc2)n1
-- reply 0.985

-- ask Can you check O=C1c2cccc3c(Sc4ccccc4)ccc(c23)C(=O)N1NCCO next?
-- reply 0.952

-- ask Another compound: Cc1ccc2nc(-c3ccc4c(c3)OCCO4)cn2c1
-- reply 0.99

-- ask Please do the same for OC(COc1ccc(F)cc1)(c1ccc(Cl)cc1)c1ccc(Cl)cc1 as well.
-- reply 0.983

-- ask And Cc1onc(-c2c(Cl)cccc2Cl)c1C(=O)O/N=C(/N)Cc1ccc(C(C)(C)C)cc1 ?
-- reply 0.993

====

Task for the reader: assign each of the following compounds its reported normalized growth.
Assay: chemical genetic growth profiling, strain panel (AID 1159580)
Conditions: S. cerevisiae deletion strains, growth OD, locus YPL240C, strain hsp82, hits give low values
Among all 5,500 compounds or so, about 2,000 (36%) were called active. Not shown: some 18% with an inconclusive outcome. The list shows a part of the results.
// response body must contain only the number

-- ask For the compound shown here, CC(C)c1ccc2c(c1)CCC1C(C)(C(N)=O)CCCC21C (stereo not given) , give the reported normalized growth.
-- reply 0.966

-- ask Another: CC(C)c1ccc2c(c1)CCC1[C@](C)(CN)CCC[C@]21C (stereo not given in full)
-- reply 0.988

-- ask Try O=C(O)c1cccnc1 next.
-- reply 1.01

-- ask Moving on to the next compound: CC(C)=CCc1c2c(c3occ(-c4ccc(O)cc4)c(=O)c3c1O)C=CC(C)(C)O2
-- reply 0.957

-- ask Same for COc1ccc2cc(CCC(C)=O)ccc2c1
-- reply 0.992

-- ask Likewise for O=C(O)c1ccccc1 ?
-- reply 0.996

-- ask Another compound to look at: CCN(CC)CCOCCOC(=O)C1(c2ccccc2)CCCC1
-- reply 0.995

-- ask Another compound to look at: Cc1cn[nH]c1
-- reply 1.01

-- ask Same question, CN(C)C(=O)Oc1cccc([N+](C)(C)C)c1 this time
-- reply 1

-- ask Same thing, different compound: CCCN(CCC)S(=O)(=O)c1ccc(C(=O)O)cc1
-- reply 0.977

====

Assay: chemical genetic growth profiling, strain panel (AID 1159580);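 also: tested at 20 µM; growth read once vehicle control cultures reached saturation at 30 °C; 1 = growth at the plate median or of vehicle wells; lower values mean less growth of the strain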
Conditions: S. cerevisiae deletion strains, growth OD, locus YLR113W, strain HOG1, hits give low values
In all, about 5,500 compounds went through this assay and about 2,000 (36%) were called active. Another 18% or so got no clear call; they are omitted. The list shows a part of the results.
Each entry belongs to exactly one class, chosen by where its normalized growth falls: low class: < 0.9; middle class: ≥ 0.9 and < 1; high class: ≥ 1

-- ask Determine which band this compound sits in: CC(CCc1ccccc1)NCC(O)c1ccc(O)c(C(N)=O)c1 (stereo not drawn)
-- reply high class

-- ask Try the compound CC(C)CCCC(C)C1CCC2C3=CC[C@H]4C[C@@H](O)CC[C@]4(C)C3CC[C@@]21C (stereo partly drawn)
-- reply high class

-- ask Okay, and OC[C@H]1O[C@@H](O[C@H]2[C@H](O)[C@@H](O)[C@@H](O)O[C@@H]2CO)[C@H](O)[C@@H](O)[C@@H]1O ?
-- reply high class

-- ask Entry to check: CC1=CC(=O)c2c(O)cccc2C1=O
-- reply low class

-- ask Now give it for O=[N+]([O-])c1cccc(C2CC(c3ccccc3)=Nc3ccccc3S2)c1 (stereo not drawn) too.
-- reply middle class

-- ask // repeat for C/C=C\C1=C(C(=O)O)N2C(=O)C(NC(=O)C(N)c3ccc(O)cc3)C2SC1 (stereo not drawn) and report
-- reply middle class

-- ask Also, CSc1n[nH]c(-c2cc(C(C)(C)C)oc2C)c1C#N please.
-- reply low class

-- ask Same again, this time with N/C(Cc1cccc2ccccc12)=N/OC(=O)c1ccc(Cl)cc1
-- reply low class

-- ask Also, COC(=O)C1=C(Nc2ccccc2NS(=O)(=O)c2ccc(C(F)(F)F)cc2Cl)CSC1 please.
-- reply low class

-- ask Try CC(C)CCCC(C)[C@H]1CCC2C3CC=C4C[C@@H](O)CC[C@]4(C)C3CC[C@@]21C (stereo partly drawn) next.
-- reply high class

-- ask Note, next up: CC1=CC(=O)c2ccccc2C1=O
-- reply low class

-- ask And for NC(Cn1ccc(=O)c(O)c1)C(=O)O (stereo not drawn) ?
-- reply high class

====

Assay: chemical genetic growth profiling, strain panel (AID 1159580);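 also: tested at 20 µM; growth read once vehicle control cultures reached saturation at 30 °C; 1 = growth at the plate median or of vehicle wells; lower values mean less growth of the strain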
Settings: S. cerevisiae deletion strains, growth OD, locus YOR080W, strain dia2, hits give low values
In all, about 5,500 compounds went through this assay and about 2,000 (36%) were called active. Not shown: some 18% with an inconclusive outcome. Some of the results follow.
endpointName: normalized growth
Could you respond with only the numeric value?

-- ask Entry under review: CC(C)CCCC(C)C1CCC2C3CC(=O)[C@H]4C[C@@H](O)CC[C@]4(C)C3CC[C@]12C (stereo partly specified) . Reported normalized growth?
-- reply 0.998

-- ask Try N=C(N)N next.
-- reply 0.979

-- ask Next up: CC(C)(C)NC[C@H](O)c1ccc(O)c(CO)c1
-- reply 1.02

-- ask Now give it for CC(=O)O[C@H]1CCC2(C)C3=C(CCC2C1(C)C)[C@]1(C)CCC(C(C)CCC=C(C)C)[C@@]1(C)CC3 (stereo partly specified) too.
-- reply 0.969

-- ask Can you check CC(C)(C)NCC(O)c1ccc(O)c(CO)c1 (stereo unspecified) next?
-- reply 1.03

-- ask Note, next up: CC(=O)O[C@H]1CCC2(C)C3=C(CCC2C1(C)C)[C@@]1(C)CC[C@@H](C(C)CCC=C(C)C)[C@]1(C)CC3 (stereo partly specified)
-- reply 1.02

====

Test: chemical genetic growth profiling, strain panel (AID 1159580);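 also: tested at 20 µM; growth read once vehicle control cultures reached saturation at 30 °C; 1 = growth at the plate median or of vehicle wells; lower values mean less growth of the strain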
Conditions: S. cerevisiae deletion strains, growth OD, locus YLR371W, strain rom2
About 2,000 (36%) of roughly 5,500 compounds were called active. Inconclusive results (about 18%) are left out. Rule as the data show it: active = normalized growth mostly below about 0.91 (no sharp cut-off); inconclusive = no clear call, values can overlap the other calls; inactive = mostly above about 0.92. The list shows a part of the results.
Please state which outcome applies, choosing from active, inactive

-- ask Status in this test for Oc1c(Cl)cc(Cl)cc1Sc1cc(Cl)cc(Cl)c1O ?
-- reply inactive

-- ask How about this molecule: Nc1ccc(S(=O)(=O)NC(=O)c2ccccc2)cc1
-- reply inactive

-- ask // next record COc1cc(C/C=C/c2ccccc2)c(OC)cc1O
-- reply active

-- ask Query Cc1cc(=O)[nH]c(=S)[nH]1 next
-- reply inactive

-- ask Then CC(=O)O[C@H]1CC[C@@]2(C)C(C[C@@H](OC(C)=O)[C@@]3(C)C4=CC(=O)O[C@@H](c5ccoc5)[C@]4(C)CCC23)C1(C)C (stereo partly specified) ?
-- reply inactive

-- ask Input Nc1ccc(C(=O)O)cc1
-- reply inactive

-- ask Okay, and CCN1CCN(C(=O)NC(C(=O)N[C@@H]2C(=O)N3[C@@H]2SC(C)(C)[C@@H]3C(=O)O)c2ccccc2)C(=O)C1=O (stereo partly specified) ?
-- reply inactive

-- ask Note, next up: COC(=O)c1c(C)c2c(c(C)c1O)OC(=O)c1c(C)c(Cl)c(O)c(Cl)c1O2
-- reply inactive

-- ask Check NC1=NCCN1CC(=O)O too.
-- reply inactive

-- ask Then this molecule: CC(C)CCCC(C)C1CCC2C3C[C@@H](O)[C@@]4(O)C[C@@H](O)CC[C@]4(C)C3CC[C@]12C (stereo partly specified)
-- reply inactive

-- ask CC(C)(C)NCC(O)c1ccc(O)c(CO)c1 (stereo unspecified) ?
-- reply inactive

-- ask And then CC(C)CCCC(C)[C@H]1CCC2C3CC=C4CC(=O)CC[C@]4(C)C3CC[C@@]21C (stereo partly specified) , what is it?
-- reply inactive

-- ask Query CC(C)CCCC(C)C1CCC2C3=CC[C@H]4C[C@@H](O)CC[C@]4(C)C3CC[C@@]21C (stereo partly specified) next
-- reply inactive

-- ask CC(C)=CCc1c2c(c3occ(-c4ccc(O)cc4)c(=O)c3c1O)C=CC(C)(C)O2 ?
-- reply active

-- ask Would you kindly repeat that for O=C(NCO)c1cccnc1 ?
-- reply inactive

-- ask Same for CC(=O)Oc1cccc(O)c1
-- reply inactive

-- ask Also CC12CCC(=O)C=C1CCC1C2[C@@H](O)CC2(C)C1CC[C@]2(O)C(=O)COP(=O)(O)O (stereo partly specified) , if possible.
-- reply inactive

-- ask Another: CS(=O)(=O)c1ccc([C@@H](O)[C@@H](CO)NC(=O)C(Cl)Cl)cc1
-- reply inactive

-- ask CC(=O)O[C@@H]1CC[C@@]2(C)C(C[C@@H](OC(C)=O)[C@@]3(C)C4=CC(=O)O[C@@H](c5ccoc5)[C@]4(C)CCC23)C1(C)C (stereo partly specified) , same question.
-- reply inactive

-- ask Another molecule to check: CC(CCC(=O)O)[C@H]1CCC2C3CC[C@@H]4CC(=O)CC[C@]4(C)C3C=C[C@@]21C (stereo partly specified)
-- reply inactive

-- ask Please answer likewise for CC(C)CCCC(C)C1CCC2C3CC[C@H]4C[C@@H](O)CC[C@]4(C)C3CC[C@]12C (stereo partly specified)
-- reply inactive

-- ask Note, next up: N=C(N)N
-- reply inactive

-- ask Field entry: CC(=O)O[C@H]1CCC2(C)C3=C(CCC2C1(C)C)[C@@]1(C)CC[C@@H](C(C)CCC=C(C)C)[C@]1(C)CC3 (stereo partly specified)
-- reply active

-- ask Lookup CC(=O)c1ccc(O)c(CC=C(C)C)c1
-- reply inactive

-- ask Follow-up item: CC(C)CCCC(C)C1CC[C@@]2(C)C3=C(CC[C@]12C)[C@@]1(C)CC[C@H](O)C(C)(C)C1CC3 (stereo partly specified)
-- reply inactive

-- ask // repeat for COc1c(C)c2c(c(C)c1Cl)Oc1c(Cl)c(OC)c(Cl)c(C)c1C(=O)O2 and report
-- reply inactive

-- ask Now try COC(=O)c1c(OC)cc2c(c1C)Oc1c(Cl)c(O)c(Cl)c(C)c1C(=O)O2 .
-- reply inactive

-- ask Now this one: COc1cc(C(C)=O)cc(OC)c1O
-- reply inactive

-- ask Same question, CC(=O)O[C@@H]1CC2C(C)(C)[C@H](O)C=C[C@]2(C)C2CC[C@]3(C)C(=CC(=O)O[C@H]3c3ccoc3)[C@@]21C (stereo partly specified) this time
-- reply inactive

-- ask Next molecule up: CC(=O)Oc1ccc(O)cc1
-- reply inactive

-- ask How about this molecule: C/C1=C\CC(C)(C)/C=C/CC2(C)OC2CC1 (stereo unspecified)
-- reply inactive
